METHOD_SUMMARY: log D7.4 by shake-flask method (1-octanol/PBS)
Assay type: physicochemical
ASSAY_CONTEXT: 1-octanol/PBS, pH 7.4, 1-Octanol/PBS pH 7.4, shake-flask
Description: One explanation for the high IC50 values (i.e., low activity) of the new compounds is their potential poor solubility in aqueous solution or inadequate lipophilicity. To investigate this hypothesis, we determined kinetic solubility in […] phosphate buffer at pH 7.4 (Table 1). […] The remaining two compounds, BE and 29, show low solubilities (<0.1 μM). […]
QUANTITY: logD

{"MOLECULE": "CCCCOc1ccc(-c2ccc(-c3ccc(Cn4cc(CCCCC[C@H]5OC(=O)CN(C)C(=O)/C=C/[C@@H](CN6CCN(C)CC6)NC(=O)CNC(=O)[C@@](C)(O)C(=O)[C@H]5C)nn4)cc3)cc2)cc1", "logD": 3.87}

a. CC(=O)[C@H]1CC[C@H]2[C@@H]3CCC4=CC(=O)CC[C@]4(C)[C@H]3CC[C@]12C [Progesterone, reference compound]
b. C[C@@H]1C(=O)[C@](C)(O)C(=O)NCC(=O)N[C@H](CN2CCN(C)CC2)/C=C/C(=O)N(C)CC(=O)O[C@H]1CCCCCc1cn(CCCCCCCNc2cccc3c2CN(C2CCC(=O)NC2=O)C3=O)nn1 (stereo partly shown)
Which of the two items, a and b , has the greater recorded logD? Answer by stating the label of the chosen item. a
(a: 3.85, b: 0.93)

This collection of values is drawn from paper PMC12843137.
